biological target: Glucose transporter (Leishmania mexicana); assay: ST_JUDE_LEISH: Cytotoxicity at 2uM final concentration against transgenic Leishmania Mexicana promastigotes LmGT2 that are glucose transport deficient and complemented with the L. Mexicana glucose transporter 2. Activity is measured by DNA content using SYBR green in vitro; format: functional
Exercise: for every item that follows, state its recorded inhibition.
Expressed in %, but write only the number.

For FC(F)(F)c1ccc2[nH]c(-c3ccc(-c4cccc(CN5CCN(c6ccncc6)CC5)c4)cc3)nc2c1 , write its inhibition.
9.81

For NCC1CCCN1Cc1ccc(-c2ccc(-c3nc4cc(C(F)(F)F)ccc4[nH]3)cc2)cc1 (stereo not given) , write its inhibition.
1.46

For CN1CCN(c2cc(-c3cccnc3)nc(-c3ccncc3)n2)CC1 , write its inhibition.
3.57

For COc1ccc(-c2nonc2NC(=O)c2cccc(Cl)c2)cc1OC , write its inhibition.
1.34

For Cc1[nH]cc(Br)c(=O)c1-c1ccc(Oc2ccccc2)cc1 , write its inhibition.
1.32

For COc1cccc2c(N/N=C/c3ccccc3[N+](=O)[O-])cc(C)nc12 , write its inhibition.
0.39

For COc1ccccc1CCNc1nc(C)cc(N[C@@H](CC(C)C)C(=O)NCc2cccs2)n1 , write its inhibition.
4.04

For Cc1cccc(C(=O)N2CCN(Cc3cccc(NC(=O)c4ccco4)c3)CC2)c1 , write its inhibition.
1.47

For Cc1ccc(S(=O)(=O)N2CCN(C(=O)c3cc(-c4cccs4)n[nH]3)CC2)c(C)c1 , write its inhibition.
-0.33

For COc1ccc2nc3cc(Cl)ccc3c(Nc3ccc(C(=O)O)cc3)c2c1 , write its inhibition.
0.06

For CN(C)CCNCc1ccc(-c2cccc(-c3nc4ccccc4[nH]3)c2)cc1 , write its inhibition.
8.27

For C=CCn1c(Sc2ccc(C#N)c([N+](=O)[O-])c2)nnc1-c1cccc(Cl)c1 , write its inhibition.
-1.95

For NC(=O)C1CCN(Cc2ccc(-c3ccc(-c4nc5cc(F)ccc5[nH]4)cc3)cc2)CC1 , write its inhibition.
10.8

For CCNc1cc(C)nc(Nc2ccc(NS(=O)(=O)c3cc(OC)ccc3OC)cc2)n1 , write its inhibition.
5.24

For O=C(/C=C/c1ccc(Cl)c(Cl)c1)NCCCCCN1CCC(NC(=O)Nc2ccc([N+](=O)[O-])cc2)CC1 , write its inhibition.
-0.43

For Cc1cccc2nc(-c3cccc(-c4cccc(NC(=O)c5cn(C)c(=O)n5C)c4)c3)[nH]c12 , write its inhibition.
-0.64

For Nc1cc(/C=C/c2ccc([N+](=O)[O-])o2)nc2ccccc12 , write its inhibition.
101

For CC1CN(c2ccc(NC(=O)c3cccs3)cc2)CCN1Cc1cccc(F)c1 (stereo not given) , write its inhibition.
3.41

For O=c1c(Br)c(C(F)(F)F)[nH]c2ccc(Oc3ccccc3)cc12 , write its inhibition.
2.63

For CNC(=O)COc1ccc(Nc2nnc(-c3ccc(C)c(S(=O)(=O)NCC4CCCO4)c3)c3ccccc23)cc1 (stereo not given) , write its inhibition.
-0.43

* * *

target: Hexose transporter 1 (Plasmodium falciparum); assay: ST_JUDE_LEISH: Cytotoxicity at 2uM final concentration against transgenic Leishmania Mexicana promastigotes LmPfHT that are glucose transport deficient and complemented with the Plasmodium falciparum hexose transporter. Activity is measured by DNA content using SYBR green in vitro; type: functional
Exercise: for every item that follows, state its recorded inhibition.
Expressed in %, but write only the number.

Please indicate recorded inhibition of COc1ccccc1C1CCN(C2CCC(NC(=O)/C=C/c3ccc(F)c(F)c3)CC2)CC1 (centres undefined) measured with Hexose transporter 1 (Plasmodium falciparum).
-1.53

Please indicate recorded inhibition of Cc1cc2ncn(-c3ccnc(N4CCN(CCCN5CCCC5)CC4)n3)c2cc1C measured with Hexose transporter 1 (Plasmodium falciparum).
3.43

Please indicate recorded inhibition of O=C(Nc1cccc(-c2csc(NC(=O)c3ccc4ccccc4c3)n2)c1)c1ccc2ccccc2c1 measured with Hexose transporter 1 (Plasmodium falciparum).
1.22

Please indicate recorded inhibition of Cc1cc2c(NC(=O)NC3CCN(CCc4ccccc4Cl)CC3)cccc2cn1 measured with Hexose transporter 1 (Plasmodium falciparum).
1.74

Please indicate recorded inhibition of Cc1noc(C)c1-c1cccc(CNCc2cccc(-c3cccc(-c4nc5cccc(C)c5[nH]4)c3)c2)c1 measured with Hexose transporter 1 (Plasmodium falciparum).
-0.81

Please indicate recorded inhibition of Oc1ccc2c(c1NCC1CCCCC1)CCCC2 measured with Hexose transporter 1 (Plasmodium falciparum).
2.89

Please indicate recorded inhibition of O=C(Nc1ccc2c(c1)CCC2)c1nc(N2CCN(c3ccncc3)CC2)ccc1Cl measured with Hexose transporter 1 (Plasmodium falciparum).
1.86

Please indicate recorded inhibition of Clc1nc(Cl)c2c(ccn2Cc2ccccc2)n1 measured with Hexose transporter 1 (Plasmodium falciparum).
0.9

Please indicate recorded inhibition of COc1cc2nccc(Nc3cc(C)cc(O)c3)c2cc1OC measured with Hexose transporter 1 (Plasmodium falciparum).
3.99

Please indicate recorded inhibition of COc1ccc(CNCc2ccc(-c3ccc(-c4nc5cc(C(F)(F)F)ccc5[nH]4)s3)cc2)cc1 measured with Hexose transporter 1 (Plasmodium falciparum).
1.92

Please indicate recorded inhibition of NC1CCN(c2nc(NCCCc3ccc(O)cc3)nc(NCc3ccccc3-c3ccccc3)n2)CC1 measured with Hexose transporter 1 (Plasmodium falciparum).
0.01

Please indicate recorded inhibition of CCCCCCCCn1c2c(c(=N)c3c1CCC3)CCC2 measured with Hexose transporter 1 (Plasmodium falciparum).
91.5

Please indicate recorded inhibition of CCC(C)(C)c1ccc(N2C(N)=NC(N)=NC2(C)C)cc1 measured with Hexose transporter 1 (Plasmodium falciparum).
-1.28

Please indicate recorded inhibition of COCCCC1C(=O)OC2CCCC21 (centres undefined) measured with Hexose transporter 1 (Plasmodium falciparum).
3.28

Please indicate recorded inhibition of CCC[C@@H]([C@@H](CC1CCCCC1)C(=O)N[C@H](C(=O)Nc1nccs1)C(C)(C)SCCNC(=O)OCC)N(O)C=O measured with Hexose transporter 1 (Plasmodium falciparum).
4.46

Please indicate recorded inhibition of COc1ccc(S(=O)(=O)NC2CCN(CCNC(=O)Nc3cc(C)nc4ccccc34)C2)cc1 (centres undefined) measured with Hexose transporter 1 (Plasmodium falciparum).
-0.21

Please indicate recorded inhibition of N#Cc1ccc(C(=O)Nc2cc(-c3cccc(O)c3)cc3[nH]ncc23)cc1 measured with Hexose transporter 1 (Plasmodium falciparum).
2.33

Please indicate recorded inhibition of COc1ccc(NC(=O)Nc2ccc(-c3ccccc3)cc2)cc1Cn1nc(Cl)c(N2CCCNCC2)cc1=O measured with Hexose transporter 1 (Plasmodium falciparum).
0.83

Please indicate recorded inhibition of C[C@H](NC(=O)c1cc(-c2ccc(C(C)(C)C)cc2)no1)C(=O)O.C[C@H](NC(=O)c1conc1-c1ccc(C(C)(C)C)cc1)C(=O)O measured with Hexose transporter 1 (Plasmodium falciparum).
0.23

Please indicate recorded inhibition of Cc1cc(Br)cnc1CCCCNc1cc(=O)c2ccccc2[nH]1 measured with Hexose transporter 1 (Plasmodium falciparum).
6.14

Please indicate recorded inhibition of O=C(N[C@@H](CC1CCCCC1)C(=O)NCCN1CCOCC1)c1ccc(O)c(-c2ccc(Cl)c(Cl)c2)c1 measured with Hexose transporter 1 (Plasmodium falciparum).
1.41

Please indicate recorded inhibition of Cc1[nH]c(C)c(-c2ccc(OCc3ccccc3C(F)(F)F)nc2)c(=O)c1Br measured with Hexose transporter 1 (Plasmodium falciparum).
6.13

Please indicate recorded inhibition of OCCOCCNCc1cccc(C#Cc2cc3ncnc(Nc4ccc(OCc5cccc(F)c5)c(Cl)c4)c3s2)n1 measured with Hexose transporter 1 (Plasmodium falciparum).
1.33

Please indicate recorded inhibition of c1ccc(CN2CCN(CCNc3c4ccccc4nc4ccccc34)CC2)cc1 measured with Hexose transporter 1 (Plasmodium falciparum).
10.9

Please indicate recorded inhibition of N#Cc1cc(C(=O)Nc2ccccc2)c(N)nc1SCC(=O)Nc1ccc(Br)cc1 measured with Hexose transporter 1 (Plasmodium falciparum).
5.88

Please indicate recorded inhibition of Oc1ccc(C=NNC(S)=Nc2cccc3ccccc23)c(O)c1 measured with Hexose transporter 1 (Plasmodium falciparum).
4.96

Please indicate recorded inhibition of CCCCOc1c(CCC)cc(Cc2cnc(N)nc2N)cc1CCC measured with Hexose transporter 1 (Plasmodium falciparum).
3.82

Please indicate recorded inhibition of COc1cc(Cc2cnc(N)nc2N)ccc1OCc1ccc(-c2ccccc2C#N)cc1 measured with Hexose transporter 1 (Plasmodium falciparum).
0.47

Please indicate recorded inhibition of Cc1cccc2nc(-c3ccc(-c4cccc(NC(=O)c5cncn5C)c4)s3)[nH]c12 measured with Hexose transporter 1 (Plasmodium falciparum).
2.43

Please indicate recorded inhibition of N#Cc1ccc(N/C(=N\c2ccc(-c3ccccc3)cc2)NC2CCCc3ccccc32)c(O)c1 (centres undefined) measured with Hexose transporter 1 (Plasmodium falciparum).
0.81

Please indicate recorded inhibition of O=C(NCCN1CCCC1)c1cccc(-c2ccc(-c3nc4cc(C(F)(F)F)ccc4[nH]3)cc2)c1 measured with Hexose transporter 1 (Plasmodium falciparum).
0.34

Please indicate recorded inhibition of Cc1ccc(C(=O)NC2CC2)cc1-c1ccc2c(cnn2S(=O)(=O)c2ccc(F)cc2)c1 measured with Hexose transporter 1 (Plasmodium falciparum).
3.78

Please indicate recorded inhibition of CCOc1cc(C(=O)NCC2CCN(CC3CCCCC3)CC2)ccc1-c1nc2cc(Cl)ccc2[nH]1 measured with Hexose transporter 1 (Plasmodium falciparum).
1.54

Please indicate recorded inhibition of O=C(Nc1cccc(-c2ccc(-c3nc4cc(C(F)(F)F)ccc4[nH]3)cc2)c1)c1c[nH]cn1 measured with Hexose transporter 1 (Plasmodium falciparum).
5.19

Please indicate recorded inhibition of O=C(c1cccs1)N1CCN(c2ccc([N+](=O)[O-])c(NC3CC3)c2)CC1 measured with Hexose transporter 1 (Plasmodium falciparum).
0.57

Please indicate recorded inhibition of O=C(c1ccc(-c2ccc(-c3nc4cc(C(F)(F)F)ccc4[nH]3)s2)cc1)N1CCCCC1CN1CCC(O)C1 (centres undefined) measured with Hexose transporter 1 (Plasmodium falciparum).
5.1

Please indicate recorded inhibition of CN(C)c1ccc(/C=C2\S/C(=N\c3ccccc3)N(c3ccccc3)C2=O)cc1[N+](=O)[O-] measured with Hexose transporter 1 (Plasmodium falciparum).
1.07

Please indicate recorded inhibition of CCOC(=O)c1ccc(N2CCN(c3cc(Cl)ccc3C)CC2)c(NC(=O)Nc2ccc(Cl)c(Cl)c2)c1 measured with Hexose transporter 1 (Plasmodium falciparum).
-3.18

Please indicate recorded inhibition of O=C(Nc1ccc(Cl)cc1)OCCn1nnnc1C(c1ccc(Cl)cc1)N1CCOCC1 (centres undefined) measured with Hexose transporter 1 (Plasmodium falciparum).
0.7
